# Tested on: 843126-344-R-J1-PDC complex spheroid viability;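 further: spheroids exposed to drugs for seven days before readout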
# Assay summary: Anticancer human tumor 843126-344-R-J1-PDC patient-derived melanoma cell line growth inhibition [POLQ]
# Condition info: second compound 10 µM; first compound 1 µM; active compounds read low
Let's look at some compounds and their measured viability, T/C.
Please give a number only; it is taken to be in %.

# annotated cases, reported viability, T/C shown
CCc1cc2c(N3CCc4c(cc(Cn5ccnc5)cc4-c4cn(C)nc4C(F)(F)F)C3=O)ccnc2c(OC)n1 + COC1C(OC(N)=O)C(O)C(Oc2ccc3c(O)c(NC(=O)c4ccc(O)c(CC=C(C)C)c4)c(=O)oc3c2C)OC1(C)C
78.5
CCCS(=O)(=O)Nc1ccc(F)c(C(=O)c2c[nH]c3ncc(-c4ccc(Cl)cc4)cc23)c1F + COC1C(OC(N)=O)C(O)C(Oc2ccc3c(O)c(NC(=O)c4ccc(O)c(CC=C(C)C)c4)c(=O)oc3c2C)OC1(C)C
75.2
C#Cc1c(F)ccc2cc(O)cc(-c3ncc4c(N5CC6CCC(C5)N6)nc(OCC56CCCN5CC(F)C6)nc4c3F)c12 (configuration not stated) + COC1C(OC(N)=O)C(O)C(Oc2ccc3c(O)c(NC(=O)c4ccc(O)c(CC=C(C)C)c4)c(=O)oc3c2C)OC1(C)C
100

Param item = COc1cc2cc(C(=O)CCC(=O)O)sc2cc1OC + COC1C(OC(N)=O)C(O)C(Oc2ccc3c(O)c(NC(=O)c4ccc(O)c(CC=C(C)C)c4)c(=O)oc3c2C)OC1(C)C ; retrieve measured viability, T/C.
110

Report viability, T/C for C=CCn1c(=O)c2cnc(Nc3ccc(N4CCN(C)CC4)cc3)nc2n1-c1cccc(C(C)(C)O)n1 + COC1C(OC(N)=O)C(O)C(Oc2ccc3c(O)c(NC(=O)c4ccc(O)c(CC=C(C)C)c4)c(=O)oc3c2C)OC1(C)C please.
65

Bench note: what viability, T/C did Nc1ccn(C2OC(CO)C(O)C2(F)F)c(=O)n1 (configuration not stated) + COC1C(OC(N)=O)C(O)C(Oc2ccc3c(O)c(NC(=O)c4ccc(O)c(CC=C(C)C)c4)c(=O)oc3c2C)OC1(C)C show?
32.8

# lookup: viability, T/C of CC(C)n1c(=O)n(C)c2cnc3cc(F)c(-c4ccc(OCCCN5CCCCC5)nc4)cc3c21 + Nc1ccc(C#CCN(C(=O)Cc2ncc(C(F)(F)F)cc2C(F)(F)F)c2ccc(F)cc2)nn1
91.4

For the compound shown here, C=CCn1c(=O)c2cnc(Nc3ccc(N4CCN(C)CC4)cc3)nc2n1-c1cccc(C(C)(C)O)n1 + Cc1cccc(N(C)C(=O)C2C(O)CCN2c2nc(C)cc(C(F)(F)F)c2C#N)c1 , give the reported viability, T/C.
83.6

Item COc1cccc2c1C(=O)c1c(O)c3c(c(O)c1C2=O)CC(O)(C(=O)CO)CC3OC1CC(N)C(O)C(C)O1 (configuration not stated) + Cc1cccc(N(C)C(=O)C2C(O)CCN2c2nc(C)cc(C(F)(F)F)c2C#N)c1 has what recorded viability, T/C?
4.4

Can you share its viability, T/C? I mean this compound: CCc1cc2c(N3CCc4c(cc(Cn5ccnc5)cc4-c4cn(C)nc4C(F)(F)F)C3=O)ccnc2c(OC)n1 + Cc1cccc(N(C)C(=O)C2C(O)CCN2c2nc(C)cc(C(F)(F)F)c2C#N)c1
68.8

Field request: viability, T/C | item: O=C(c1cc(Cc2n[nH]c(=O)c3ccccc23)ccc1F)N1CCN(C(=O)C2CC2)CC1 + Cc1cccc(N(C)C(=O)C2C(O)CCN2c2nc(C)cc(C(F)(F)F)c2C#N)c1
92.1

If you can, please state the reported viability, T/C value of COc1cc(C2c3cc4c(cc3C(OC3OC5COC(C)OC5C(O)C3O)C3COC(=O)C23)OCO4)cc(OC)c1O (configuration not stated) + Cc1cccc(N(C)C(=O)C2C(O)CCN2c2nc(C)cc(C(F)(F)F)c2C#N)c1 .
74
